These measurements were taken from ChEMBL document CHEMBL3988442.

For each record, write down the corresponding Percent Effect.
# Target Desc: Chromo domain-containing protein 1 (Saccharomyces cerevisiae (strain ATCC 204508 / S288c) (Baker's yeast))
# Protocol Notes: ScCHD-1 Enzyme Inhibition Assay
# Assay type: functional
# Set-up: scale not given: in the data most compounds retested in dose-response had high values
# Condition Description: 30 µM

Value lookup for Percent Effect; key = CC(C)N(Cc1cccc(F)c1)Cc1nc2c(cnn2C)c(=O)[nH]1 -4.1%

Value lookup for Percent Effect; key = c1cc(-c2noc(CN3CCn4c(nnc4C4CC4)C3)n2)co1 2.97%

Value lookup for Percent Effect; key = Cn1ccc(C(=O)NCc2cccc(N3CCCCC3=O)c2)cc1=O -9.09%

Value lookup for Percent Effect; key = O=C(c1cc(Cl)c2c(c1)OCCO2)N1CCCC(n2cncn2)C1 (centres undefined) 2.59%

Value lookup for Percent Effect; key = CO[C@@H]1CCN(C(=O)c2ccccn2)[C@H]1Cc1ccccc1 -6.55%

Value lookup for Percent Effect; key = CC(NC(=O)CN(C)S(C)(=O)=O)c1nnc2n1CCCCC2 (centres undefined) -8.79%

Value lookup for Percent Effect; key = CCCn1[nH]cc/c1=N\C(=O)CN1CCc2cnc(CC)nc2C1 5.4%

Value lookup for Percent Effect; key = CCOCC1CC2(CCN(C(=O)c3ccccn3)CC2)CO1 (centres undefined) -2.76%

Value lookup for Percent Effect; key = CN(Cc1noc(C2CC2)n1)C1CCN(Cc2ccncc2)C1 (centres undefined) -9.5%

Value lookup for Percent Effect; key = CCc1nc(C)ncc1C(=O)N1CCCC(n2nc(C)nc2C)C1 (centres undefined) -2.45%

Value lookup for Percent Effect; key = CCCN1CCCn2nc(CNS(=O)(=O)c3ccc(C)cc3)cc2C1 -1.82%

Value lookup for Percent Effect; key = CCNc1cc2c(nn1)CCN(C(=O)c1cc3nc(C)ccc3o1)C2 -6.95%

Value lookup for Percent Effect; key = CCn1cc2c(n1)C(COC)CN(C(=O)COc1ccccc1C)C2 (centres undefined) 2.06%

Value lookup for Percent Effect; key = O=C(NCCCNc1ccccc1)c1scnc1Cl -10.6%

Value lookup for Percent Effect; key = COCC1CN(Cc2ccc(OC)cc2)Cc2nn(C)cc21 (centres undefined) -2.71%

Value lookup for Percent Effect; key = CNC(=O)COc1ccccc1CNC1CCc2ncnn2C1 (centres undefined) 44.8%

Value lookup for Percent Effect; key = Cn1ccc(CN2CCC(NC(=O)NC3CCCCC3)CC2)cc1=O -1.97%

Value lookup for Percent Effect; key = CCc1ncc(C(=O)N2CCOCC2c2c(C)n[nH]c2C)s1 (centres undefined) -1.09%

Value lookup for Percent Effect; key = Cc1ccc(NC(=O)C(C)N2CCCN(c3nccs3)CC2)c(C)c1 (centres undefined) -0.819%

Value lookup for Percent Effect; key = CCc1nc(C)c(C(=O)NCCN2CCC(C)CC2)s1 -2.04%

Value lookup for Percent Effect; key = O=C1COC2(CCN(C(=O)c3ccco3)CC2)CN1Cc1cccnc1 -5.67%

Value lookup for Percent Effect; key = O=c1cc(Cn2cncn2)nc2n1CCCN(CC1CC1)C2 -4.01%

Value lookup for Percent Effect; key = CNc1ccc(CC2CCCN(C(=O)c3cncnc3C)C2)nn1 (centres undefined) -22.6%

Value lookup for Percent Effect; key = CN(C)CC(=O)N1CCC2(CC1)COC(COc1ccccn1)C2 (centres undefined) -0.892%

Value lookup for Percent Effect; key = Fc1ccc(-c2nnc(CN3CCn4c(nnc4C4CC4)C3)o2)cc1 -6.37%

Value lookup for Percent Effect; key = Cn1cnc2c1CCN(Cc1cccc(C(N)=O)c1)C2 4.07%

Value lookup for Percent Effect; key = Clc1ccccc1-c1nc(CNC2CCc3ncnn3C2)cs1 (centres undefined) 6.45%

Value lookup for Percent Effect; key = O=C(c1ncccn1)N1C[C@H]2CCC[C@@]2(COCc2cccnc2)C1 -1.21%

Value lookup for Percent Effect; key = CNC(=O)[C@@H]1C[C@H]2CN(Cc3ccco3)C[C@H]2N1C -2.19%

Value lookup for Percent Effect; key = CCc1nc(C2CCCN2C(=O)c2c[nH]c(C)n2)no1 (centres undefined) -9.37%

Value lookup for Percent Effect; key = CCS(=O)(=O)N1CCC2(CC1)CN(Cc1ccccn1)C(=O)CO2 2.48%

Value lookup for Percent Effect; key = Cc1[nH]c2ccccc2c1-c1ccnc(NC[C@H](O)CO)n1 -13.5%

Value lookup for Percent Effect; key = NCc1cn(-c2ccccc2C(=O)NCc2cccc(Cl)c2)cn1 -24.5%

Value lookup for Percent Effect; key = CC(C)NC(=O)C(c1ccccc1)N1CCn2c(nnc2C2CC2)C1 (centres undefined) -5.56%

Value lookup for Percent Effect; key = Cn1cccc1-c1cc(C(=O)N2CCCC2c2cccnc2)[nH]n1 (centres undefined) -2.92%

Value lookup for Percent Effect; key = O=C1CC2(CCN(S(=O)(=O)c3cccs3)C2)CN1c1ccccc1 (centres undefined) -2.17%

Value lookup for Percent Effect; key = Cn1nc2c(cc1=O)CN(Cc1nnc(-c3ccco3)o1)CC2 17.4%

Value lookup for Percent Effect; key = O=C1NCCN(CC2CC2)C12CCN(Cc1ccco1)CC2 -3.23%

Value lookup for Percent Effect; key = Fc1ccc(CN2CCC(c3n[nH]c4ncccc34)CC2)cc1F -26.5%
